assayOverview: in vivo
conditionContext: male, Sprague-Dawley, rat, po
readoutKind: Tmax at 24 h (h)
Give bare numbers, in h.

[in] Need Tmax at 24 h of O=c1nc(OC[C@@H]2COCCO2)cc2n1CCc1cc(C#CC3CC3)ccc1-2 [GLPG-1205] , thanks.
[out] 1.5

----------
targetOrSystem: CYP3A4 (Homo sapiens)
Sequence (P08684 whole entry): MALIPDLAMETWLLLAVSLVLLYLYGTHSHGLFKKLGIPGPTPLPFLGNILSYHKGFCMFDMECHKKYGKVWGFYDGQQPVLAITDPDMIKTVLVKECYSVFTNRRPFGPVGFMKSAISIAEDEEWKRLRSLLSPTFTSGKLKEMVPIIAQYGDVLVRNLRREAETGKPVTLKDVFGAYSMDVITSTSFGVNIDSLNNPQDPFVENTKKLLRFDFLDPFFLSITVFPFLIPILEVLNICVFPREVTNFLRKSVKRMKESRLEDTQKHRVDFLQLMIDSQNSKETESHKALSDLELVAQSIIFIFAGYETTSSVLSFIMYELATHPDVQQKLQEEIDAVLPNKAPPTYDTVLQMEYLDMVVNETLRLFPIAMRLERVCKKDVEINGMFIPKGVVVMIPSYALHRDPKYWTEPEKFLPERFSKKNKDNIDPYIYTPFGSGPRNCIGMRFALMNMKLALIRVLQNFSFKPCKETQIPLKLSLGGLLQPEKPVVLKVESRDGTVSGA
assayOverview: Inhibition of CYP3A4 in human liver microsomes at 10 uM using testosterone as probe substrate and in presence of co-factor measured after 20 mins by LC-MS/MS analysis relative to control
Assay type: ADME
readoutKind: inhibition at 20 min, 10 µM

[in] Need inhibition at 20 min, 10 µM of COc1cc2c(cc1OC)-c1cc(NCc3ccccc3)nc(=O)n1CC2 , thanks.
[out] < 33%

----------
assayOverview: Clearance in CD1 mouse at 1 mg/kg, iv administered as single bolus dose using PEG-200/saline formulation measured after 24 hrs by LC-MS/MS analysis
conditionContext: in vivo
readoutKind: clearance at 24 h (mL/min/kg)
One number for each entry, in mL/min/kg.

[in] Need clearance at 24 h of O=c1nc(OC[C@@H]2COCCO2)cc2n1CCc1cc(C#CC3CC3)ccc1-2 , thanks.
[out] 15

----------
assayOverview: in vivo
conditionContext: Balb/c, mouse, plasma, po, 3 mg/kg
readoutKind: Cmax (ng/mL)
Answers are plain numbers, in ng/mL.

[in] Need Cmax of O=c1nc(OC[C@@H]2COCCO2)cc2n1CCc1cc(C#CC3CC3)ccc1-2 , thanks.
[out] 1840

----------
assayOverview: Thermodynamic solubility of compound at pH 7.4
conditionContext: buffer
Please go through the items and note down their solubility thermodynamic.
Numbers only, in µg/mL.

O=c1nc(OC[C@@H]2COCCO2)cc2n1CCc1cc(C#CC3CC3)ccc1-2 = 7.75

--- query ---
[in] Need solubility thermodynamic of O=c1nc(OC[C@H]2COCCO2)cc2n1CCc1cc(C#CC3CC3)ccc1-2 , thanks.
[out] 9.49

----------
targetOrSystem: UniProt:P33261
Sequence (P33261 whole entry): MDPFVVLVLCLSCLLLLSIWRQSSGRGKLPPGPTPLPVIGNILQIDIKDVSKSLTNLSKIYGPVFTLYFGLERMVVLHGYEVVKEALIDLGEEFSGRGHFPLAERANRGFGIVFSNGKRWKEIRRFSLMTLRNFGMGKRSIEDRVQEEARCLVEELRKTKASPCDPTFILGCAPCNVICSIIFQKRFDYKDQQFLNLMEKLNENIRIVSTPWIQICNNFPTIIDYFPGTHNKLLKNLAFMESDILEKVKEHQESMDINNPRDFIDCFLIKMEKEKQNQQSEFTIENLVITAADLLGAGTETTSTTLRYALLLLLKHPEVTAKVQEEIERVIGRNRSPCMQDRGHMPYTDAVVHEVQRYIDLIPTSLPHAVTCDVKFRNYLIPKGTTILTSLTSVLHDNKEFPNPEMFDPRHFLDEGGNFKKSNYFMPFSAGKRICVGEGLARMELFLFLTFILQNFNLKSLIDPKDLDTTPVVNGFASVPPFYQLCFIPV
assayOverview: Inhibition of CYP2C19 in human liver microsomes at 10 uM using probe substrate and in presence of co-factor measured after 20 mins by LC-MS/MS analysis relative to control
Assay type: ADME
readoutKind: inhibition at 20 min, 10 µM

[in] Need inhibition at 20 min, 10 µM of COc1cc2c(cc1OC)-c1cc(NCc3ccccc3)nc(=O)n1CC2 , thanks.
[out] < 33%

----------
Please go through the items and note down their CLint scaled at 0.5 h, 1 µM.
assayOverview: in vitro
conditionContext: human, liver microsomes
Give bare numbers, in mL/min/kg.

Study these solved cases before continuing.
CN(CC#Cc1ccc2c(c1)CCn1c-2cc(OCC2COCCO2)nc1=O)Cc1ccccc1 (stereo unspecified) = 88.3
O=c1nc(OCC2COCCO2)cc2n1CCc1cc(CCc3ccccn3)ccc1-2 (stereo unspecified) = 25
COc1ccc2c(c1)CCn1c-2cc(OC[C@H]2COc3ncccc3O2)nc1=O = 35
COc1ccc2c(c1)CCn1c-2cc(OCC2COc3ccccc3O2)nc1=O (stereo unspecified) = 76.7
O=c1nc(OC[C@H]2COCCO2)cc2n1CCc1cc(C#CC3CC3)ccc1-2 = 16
O=c1nc(OCC2COCCO2)cc2n1CCc1cc(C#CC3CC3)ccc1-2 (racemic) = 36.7
COc1ccc2c(c1)CCn1c-2cc(OCC2CCCO2)nc1=O (stereo unspecified) = 33.3
COc1ccc2c(c1)CCn1c-2cc(OCC2CCCCO2)nc1=O (stereo unspecified) = 21.7

--- query ---
[in] Need CLint scaled at 0.5 h, 1 µM of N#Cc1ccccc1-c1ccc2c(c1)CCn1c-2cc(OCC2COCCO2)nc1=O (stereo unspecified) , thanks.
[out] 86.7

----------
assayOverview: in vivo
conditionContext: Beagle, dog, po
readoutKind: AUC(0-t) at 24 h (µg·h/mL)
Numbers only, in µg·h/mL.

[in] Need AUC(0-t) at 24 h of O=c1nc(OC[C@@H]2COCCO2)cc2n1CCc1cc(C#CC3CC3)ccc1-2 , thanks.
[out] 2.23

----------
assayOverview: Plasma protein binding in mouse at 5 uM measured after 4 hrs by LC-MS/MS analysis
Cut-off 0.09 on fraction unbound at 4 h, 5 µM: below means 1, at or above means -1.

COc1ccc2c(c1)CCn1c-2cc(OC[C@H]2COc3ncccc3O2)nc1=O = 1

[in] Just wondering, is fraction unbound at 4 h, 5 µM of O=c1nc(OC[C@H]2COCCO2)cc2n1CCc1cc(C#CC3CC3)ccc1-2 below 0.09?
[out] 1

[in] Just wondering, is fraction unbound at 4 h, 5 µM of COc1ccc2c(c1)CCn1c-2cc(OCC2COc3ccccc3O2)nc1=O (stereo not given) below 0.09?
[out] 1

[in] Just wondering, is fraction unbound at 4 h, 5 µM of O=c1nc(OC[C@@H]2COCCO2)cc2n1CCc1cc(C#CC3CC3)ccc1-2 below 0.09?
[out] 1

[in] Just wondering, is fraction unbound at 4 h, 5 µM of COc1ccc2c(c1)CCn1c-2cc(OCC2COCCO2)nc1=O (stereo not given) below 0.09?
[out] -1

----------
assayOverview: Half-life in male Sprague-Dawley rat at 0.5 mg/kg, iv administered as single bolus dose using PEG-200/NaCl formulation measured after 24 hrs by LC-MS/MS analysis
conditionContext: in vivo
readoutKind: half-life at 24 h (h)
Answers are plain numbers, in h.

[in] Need half-life at 24 h of O=c1nc(OC[C@@H]2COCCO2)cc2n1CCc1cc(C#CC3CC3)ccc1-2 [GLPG-1205] , thanks.
[out] 1

----------
Please go through the items and note down their fraction unbound at 4 h, 5 µM.
assayOverview: Plasma protein binding in human at 5 uM measured after 4 hrs by LC-MS/MS analysis
Numbers only.

O=c1nc(OC[C@@H]2COCCO2)cc2n1CCc1cc(C#CC3CC3)ccc1-2 [GLPG-1205] = 0.028
COc1ccc2c(c1)CCn1c-2cc(OC[C@H]2COc3ncccc3O2)nc1=O = 0.027
COc1ccc2c(c1)CCn1c-2cc(OCC2COc3ccccc3O2)nc1=O (stereo not given) = 0.002
COc1ccc2c(c1)CCn1c-2cc(OCC2COCCO2)nc1=O (stereo not given) = 0.223

[in] Need fraction unbound at 4 h, 5 µM of O=c1nc(OC[C@H]2COCCO2)cc2n1CCc1cc(C#CC3CC3)ccc1-2 , thanks.
[out] 0.059

----------
assayOverview: in vivo
conditionContext: Balb/c, mouse, plasma, po, 10 mg/kg
readoutKind: Tmax
Note to self: number, then unit, no commentary.

[in] Need Tmax of O=c1nc(OC[C@@H]2COCCO2)cc2n1CCc1cc(C#CC3CC3)ccc1-2 , thanks.
[out] 1 h

----------
Please go through the items and note down their half-life at 1 µM.
assayOverview: in vitro
conditionContext: human, cryopreserved hepatocytes

O=c1nc(OC[C@H]2COCCO2)cc2n1CCc1cc(C#CC3CC3)ccc1-2 = > 3.33 h

[in] Need half-life at 1 µM of O=c1nc(OC[C@@H]2COCCO2)cc2n1CCc1cc(C#CC3CC3)ccc1-2 [GLPG-1205] , thanks.
[out] > 3.33 h

----------
Please go through the items and note down their half-life at 1 µM.
assayOverview: in vitro
conditionContext: mouse, cryopreserved hepatocytes

O=c1nc(OC[C@@H]2COCCO2)cc2n1CCc1cc(C#CC3CC3)ccc1-2 = > 3.33 h

[in] Need half-life at 1 µM of O=c1nc(OC[C@H]2COCCO2)cc2n1CCc1cc(C#CC3CC3)ccc1-2 , thanks.
[out] > 3.33 h

----------
assayOverview: in vitro
conditionContext: human, cryopreserved hepatocytes
Please go through the items and note down their CLint scaled at 1 µM.
Give bare numbers, in mL/min/kg.

COc1ccc2c(c1)CCn1c-2cc(OCC2CCCCO2)nc1=O (configuration not stated) = 25

Hi! Can you tell me CLint scaled at 1 µM for each of these compounds?
1. COc1ccc2c(c1)CCn1c-2cc(OCC2COc3ccccc3O2)nc1=O (configuration not stated)
2. COc1ccc2c(c1)CCn1c-2cc(OCC2CCCO2)nc1=O (configuration not stated)
3. COc1ccc2c(c1)CCn1c-2cc(OC[C@H]2COc3ncccc3O2)nc1=O

[out]
[90, 23.3, 13.3]

----------
assayOverview: in vivo
conditionContext: male, Sprague-Dawley, rat, po
readoutKind: AUC(0-t) at 24 h (ng·h/mL)
Numbers only, in ng·h/mL.

[in] Need AUC(0-t) at 24 h of O=c1nc(OC[C@@H]2COCCO2)cc2n1CCc1cc(C#CC3CC3)ccc1-2 [GLPG-1205] , thanks.
[out] 4470

----------
assayOverview: in vivo
conditionContext: CD1, mouse, po, 5 mg/kg
readoutKind: Tmax at 24 h (min)
One number for each entry, in min.

[in] Need Tmax at 24 h of O=c1nc(OC[C@@H]2COCCO2)cc2n1CCc1cc(C#CC3CC3)ccc1-2 , thanks.
[out] 30

Origin of values: ChEMBL document CHEMBL4673243
